# Test system: CD2F1 mice, L1210 leukemia ip, survival T/C
# PROTOCOL_SUMMARY: NCI In Vivo Anticancer Drug Screen. Data for tumor model L1210 Leukemia (intraperitoneal) in CD2F1 (CDF1) mice
# DETAILS: endpoint: mean survival time; dose: 25.0 mg/kg/injection; schedule: Q01DX009 (ip); vehicle: saline with Tween-80; higher = longer survival
Toxic doses and inconclusive results are not listed.
MEASUREMENT_KIND: T/C

Find the measured T/C of N=C(N)SCc1cccc2c(=O)cc(-c3ccccc3)oc12 with CD2F1 mice, L1210 leukemia ip, survival T/C as test system.
95 % of control

Check CD2F1 mice, L1210 leukemia ip, survival T/C data and give T/C for CC1C(=O)OC(C)(C)C1(C)C (centres undefined) .
98 % of control

Look up and report T/C, with CD2F1 mice, L1210 leukemia ip, survival T/C as system, for N#CC(c1cccnc1)N1CCOCC1 (centres undefined)
98 % of control

GET T/C where system = CD2F1 mice, L1210 leukemia ip, survival T/C and item = C[N+](C)(C)/N=C\c1cccc2ccccc12
104 % of control

System CD2F1 mice, L1210 leukemia ip, survival T/C. Read-out T/C. Item C=CCNC(=O)/C=C/C(=O)NCC=C . Report value.
97 % of control

Answer with T/C of CC(=O)Nc1ccc(OCCOC(=O)Nc2ccc(C)c([N+](=O)[O-])c2)cc1 measured for CD2F1 mice, L1210 leukemia ip, survival T/C.
88 % of control

Give reported T/C for COc1cc(O)c2c(O)c3c(c4c2c1[C@]1(C4)C(C)=CCCC1(C)C)[C@H](O)[C@@]1(O)CC(=O)C(C(N)=O)=C(O)[C@@]1(O)C3=O (CD2F1 mice, L1210 leukemia ip, survival T/C)
119 % of control

Provide measured T/C on CD2F1 mice, L1210 leukemia ip, survival T/C for O=[N+]([O-])CC1CCCCC1O (centres undefined) please.
94 % of control

Give T/C only, for CC1CCC2CC(=O)NC(=O)CC12 (centres undefined) , using CD2F1 mice, L1210 leukemia ip, survival T/C data.
96 % of control

Enter measured T/C, system CD2F1 mice, L1210 leukemia ip, survival T/C, for the compound shown: O=NCC1(Cl)CC2C=CC1C2 (centres undefined)
98 % of control

Give T/C; test system CD2F1 mice, L1210 leukemia ip, survival T/C; compound NC(=O)c1c(N)sc2c1CCCC2
95 % of control

Report value only: T/C, CD2F1 mice, L1210 leukemia ip, survival T/C, Br/C=C(\Br)C[N+]12CN3CN(CN(C3)C1)C2
107 % of control

Please report T/C with CD2F1 mice, L1210 leukemia ip, survival T/C for item Oc1ccc(I)c2cccnc12 .
98 % of control

Identify measured T/C obtained with CD2F1 mice, L1210 leukemia ip, survival T/C for COc1ccc(OCCOC(=O)Nc2cc(Cl)c(OC)cc2OC)cc1 .
103 % of control

----------
# Test system: CD2F1 mice, L1210 leukemia ip, survival T/C
# PROTOCOL_SUMMARY: NCI In Vivo Anticancer Drug Screen. Data for tumor model L1210 Leukemia (intraperitoneal) in CD2F1 (CDF1) mice
# DETAILS: endpoint: mean survival time; dose: 200.0 mg/kg/injection; schedule: Q04DX003 (ip); vehicle: other; higher = longer survival
Toxic doses and inconclusive results are not listed.
Consider the following molecules; for each one, report its T/C.

Please give the documented T/C of CCOCC(=O)CC(C)C
91 % of control

Respond only with T/C recorded for O=S1(=O)CCCC1C(O)c1ccccc1 (stereo not given)
95 % of control

Return the recorded T/C value; entry: CCCCCCCCC1SC1CCCCCCCC(=O)OCCN(C)C(=O)CCCCCCCC1SC1CCCCCCCC (stereo not given)
92 % of control

Entry OCc1cc(Cl)cc(Cl)c1O needs its T/C filled in; supply it.
92 % of control

Please list T/C recorded for the molecule CCCCCCCCCCCCSS(=O)(=O)c1ccc(C)cc1
95 % of control
